Molecular target: human sEH (Homo sapiens)
Construct: made in house
Sequence (P34913 1-555): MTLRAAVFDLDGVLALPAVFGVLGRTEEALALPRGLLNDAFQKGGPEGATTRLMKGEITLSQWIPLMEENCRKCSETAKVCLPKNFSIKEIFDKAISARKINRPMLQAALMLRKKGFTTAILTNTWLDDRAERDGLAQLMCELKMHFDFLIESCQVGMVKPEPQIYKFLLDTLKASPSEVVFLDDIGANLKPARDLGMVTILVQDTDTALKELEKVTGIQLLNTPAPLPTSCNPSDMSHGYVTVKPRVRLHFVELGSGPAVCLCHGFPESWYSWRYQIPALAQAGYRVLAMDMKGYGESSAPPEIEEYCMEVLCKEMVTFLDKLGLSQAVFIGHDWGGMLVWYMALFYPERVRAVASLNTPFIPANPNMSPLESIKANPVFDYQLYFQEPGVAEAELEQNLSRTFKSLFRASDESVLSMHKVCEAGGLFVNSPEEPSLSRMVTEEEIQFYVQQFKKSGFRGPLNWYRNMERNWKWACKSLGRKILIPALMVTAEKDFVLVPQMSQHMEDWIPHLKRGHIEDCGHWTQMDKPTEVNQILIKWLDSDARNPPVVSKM
Assay: sEH inhibition, fluorescent assay with cyano(6-methoxy-naphthalen-2-yl)methyl trans-[(3-phenyloxiran-2-yl)methyl]carbonate as substrate
Type: biochemical
Conditions: Table 5; fluorescent-based assay, 0.96 nM human sEH, pH 7.0, [S] = 5 μM; read-out: Human sEH IC50
pIC50: −log10 of the molar value.
measurement-kind: pIC50

Example molecules with recorded pIC50:
CCNC(=O)CCCCCCCCCCCNC(=O)NC12CC3CC(CC(C3)C1)C2: 8.37
CCCCCCCCC(NC(=O)CCCCCCCCCCCNC(=O)NC12CC3CC(CC(C3)C1)C2)C(=O)O (centres unmarked): 7.26
CS(=O)(=O)NC(=O)CCCCCCCCCCCNC(=O)NC12CC3CC(CC(C3)C1)C2: 8.68

[a] O=C(CCCCCCCCCCCNC(=O)NC12CC3CC(CC(C3)C1)C2)NS(=O)(=O)c1ccccc1
[b] CC(C)=CCCC(C)CCOC(=O)CCCNC(=O)NC12CC3CC(CC(C3)C1)C2 (centres unmarked)
Given a and given b , which shows the smaller recorded pIC50? Let me know the label of the one you choose. b
(b: 8.12, a: 8.72)

###

Target: mouse sEH (Mus musculus, UniProt P34914)
Construct: made in house
Sequence (P34914 whole entry): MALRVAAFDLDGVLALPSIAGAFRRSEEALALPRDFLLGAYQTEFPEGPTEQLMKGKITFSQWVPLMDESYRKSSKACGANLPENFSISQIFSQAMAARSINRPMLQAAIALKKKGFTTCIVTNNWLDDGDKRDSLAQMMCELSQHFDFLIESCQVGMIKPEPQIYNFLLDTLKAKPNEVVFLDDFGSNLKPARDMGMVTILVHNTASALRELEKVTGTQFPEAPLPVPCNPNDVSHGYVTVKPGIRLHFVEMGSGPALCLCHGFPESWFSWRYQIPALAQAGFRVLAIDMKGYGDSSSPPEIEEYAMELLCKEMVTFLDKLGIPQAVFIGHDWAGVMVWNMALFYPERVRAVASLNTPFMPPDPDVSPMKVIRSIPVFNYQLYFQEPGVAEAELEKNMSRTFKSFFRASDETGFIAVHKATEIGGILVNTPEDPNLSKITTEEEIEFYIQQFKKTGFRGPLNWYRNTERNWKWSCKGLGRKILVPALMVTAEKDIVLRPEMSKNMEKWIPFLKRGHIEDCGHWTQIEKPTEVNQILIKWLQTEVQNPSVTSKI
Experiment: sEH inhibition, spectrometric assay with racemic 4-nitrophenyl-trans-2,3-epoxy-3-phenylpropyl carbonate as substrate
Assay type: biochemical
Conditions: Table 18a; read-out: IC50 Mouse sEH
Method: Recombinant mouse sEH and human sEH were produced in a baculovirus expression system and purified by affinity chromatography. […] Protein concentration was quantified by using the Pierce BCA assay using Fraction V bovine serum albumin as the calibrating standard. IC50 values were determined in one of two method. One method uses racemic 4-nitrophenyl-trans-2,3-epoxy-3-phenylpropyl carbonate as substrate. […] Assays were performed in triplicate. […]
measurement-kind: IC50 (nM)

CCOC(=O)CCCCCCNC(=O)CCCNC(=O)NC12CC3CC(CC(C3)C1)C2: 50
CCOC(=O)CCCCCOC(=O)CCCNC(=O)NC12CC3CC(CC(C3)C1)C2: 60

[a] CCOC(=O)CCCCC(C)OC(=O)CCCNC(=O)NC12CC3CC(CC(C3)C1)C2 (stereo not shown)
[b] CCOCCOCCOCCCCCNC(=O)NC12CC3CC(CC(O)(C3)C1)C2
[c] CCCCCCCCCCCCNC(=O)N[C@@H]1CCN(c2ccc(S(=O)(=O)N(C)C)c3nonc23)C1
Rank by IC50 (largest to smallest). # output: labels, in the requested order c, b, a

[1] O=C(CCCCc1ccccc1)NC12CC3CC(CC(C3)C1)C2
[2] CCOC(=O)c1cccc(NC(=O)CCCNC(=O)NC23CC4CC(CC(C4)C2)C3)c1
Given 1 and given 2 , which shows the smaller recorded IC50? Let me know the label of the one you choose. 2
(2: 40 nM, 1: 60 nM)

###

Target: human sEH (Homo sapiens)
Construct: made in house
Sequence (P34913 1-555): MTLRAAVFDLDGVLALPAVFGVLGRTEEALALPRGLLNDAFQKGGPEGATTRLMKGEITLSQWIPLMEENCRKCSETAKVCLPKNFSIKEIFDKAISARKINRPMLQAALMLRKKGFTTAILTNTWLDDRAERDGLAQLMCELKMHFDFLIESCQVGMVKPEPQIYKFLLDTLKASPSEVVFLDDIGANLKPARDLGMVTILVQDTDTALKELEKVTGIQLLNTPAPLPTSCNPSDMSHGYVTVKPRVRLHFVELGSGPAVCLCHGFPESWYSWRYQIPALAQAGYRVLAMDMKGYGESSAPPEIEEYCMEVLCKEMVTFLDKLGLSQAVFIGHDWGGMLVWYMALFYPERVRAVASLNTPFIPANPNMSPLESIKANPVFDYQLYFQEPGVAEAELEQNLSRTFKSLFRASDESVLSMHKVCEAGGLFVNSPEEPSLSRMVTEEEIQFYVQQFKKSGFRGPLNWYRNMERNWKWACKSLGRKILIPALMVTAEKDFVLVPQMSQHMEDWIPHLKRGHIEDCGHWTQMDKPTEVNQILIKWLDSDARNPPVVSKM
Assay: sEH inhibition, fluorescent assay with cyano(6-methoxy-naphthalen-2-yl)methyl trans-[(3-phenyloxiran-2-yl)methyl]carbonate as substrate
Assay type: biochemical
Details: Table 18b; fluorescent assay with cyano(6-methoxy-naphthalen-2-yl)methyl trans-[(3-phenyloxiran-2-yl)methyl]carbonate as substrate; mean ± SD; read-out: IC50
measurement-kind: IC50 (nM)

Example compounds with recorded IC50:
O=C(NCCOCc1ccc2ccccc2c1)NCCOCc1ccc2ccccc2c1: 1120
O=C(Nc1ccc(OCCN2CCOCC2)c(Cl)c1)NC12CC3CC(CC(C3)C1)C2: 10
O=C(O)Cc1cccc(NC(=O)NC23CC4CC(CC(C4)C2)C3)c1: 20
O=C(NC1CCC(OCc2ccccc2C(F)(F)F)CC1)NC12CC3CC(CC(C3)C1)C2 (stereo not drawn): 10

[A] O=C(Nc1cccc(OC(=O)c2ccccc2)c1)NC12CC3CC(CC(C3)C1)C2
[B] O=C(Nc1cccc(C(=O)NCCN2CCOCC2)c1)NC12CC3CC(CC(C3)C1)C2
Given A and given B , which shows the smaller recorded IC50? Let me know the label of the one you choose. A
(A: 10 nM, B: 60 nM)

###

Target: human sEH (Homo sapiens)
Construct: made in house
Sequence (P34913 1-555): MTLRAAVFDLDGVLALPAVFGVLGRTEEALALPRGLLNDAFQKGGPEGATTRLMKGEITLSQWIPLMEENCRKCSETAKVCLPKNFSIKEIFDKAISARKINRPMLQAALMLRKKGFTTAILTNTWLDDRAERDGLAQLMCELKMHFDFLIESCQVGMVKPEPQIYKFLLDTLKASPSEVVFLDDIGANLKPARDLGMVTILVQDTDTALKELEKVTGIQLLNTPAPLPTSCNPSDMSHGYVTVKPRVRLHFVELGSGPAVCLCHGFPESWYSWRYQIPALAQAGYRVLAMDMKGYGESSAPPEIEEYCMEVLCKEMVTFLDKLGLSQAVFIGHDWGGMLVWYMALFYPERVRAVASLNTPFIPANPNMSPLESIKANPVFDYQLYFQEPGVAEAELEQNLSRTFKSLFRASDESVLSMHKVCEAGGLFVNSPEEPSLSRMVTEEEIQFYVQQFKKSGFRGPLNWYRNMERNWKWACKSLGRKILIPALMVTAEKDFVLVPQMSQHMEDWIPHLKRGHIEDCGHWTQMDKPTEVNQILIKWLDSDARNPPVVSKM
Assay: sEH inhibition, fluorescent assay with cyano(6-methoxy-naphthalen-2-yl)methyl trans-[(3-phenyloxiran-2-yl)methyl]carbonate as substrate
Assay type: biochemical
Conditions: Table 18b; fluorescent assay with cyano(6-methoxy-naphthalen-2-yl)methyl trans-[(3-phenyloxiran-2-yl)methyl]carbonate as substrate; mean ± SD; read-out: IC50
pIC50: −log10 of the molar value.
measurement-kind: pIC50

Example compounds with recorded pIC50:
CCOCCOCC(OC(=O)CCCNC(=O)NC12CC3CC(CC(C3)C1)C2)c1ccccc1 (stereo not shown) [Compound 1439]: 8.00
O=C(Nc1ccc(Br)cc1)NC1CCC(Oc2ccc(F)cc2)CC1 (stereo not shown) [Compound 1516]: 8.00
O=C(CCCCCNC(=O)NC12CC3CC(CC(C3)C1)C2)NC(C(=O)NC(C(=O)O)c1c[nH]c2ccccc12)c1ccccc1 (stereo not shown) [Compound 1084]: 8.00
O=C(Nc1cccc(C(=O)NCCN2CCCC2)c1)NC12CC3CC(CC(C3)C1)C2 [Compound 1198]: 8.00
O=C(O)CCc1ccc(NC(=O)NC23CC4CC(CC(C4)C2)C3)cc1 [Compound 1223]: 8.00

[1] Cc1c(COC(=O)NC2CCCCC2)cccc1-c1ccccc1 [Compound 1230]
[2] O=C(CC12CC3CC(CC(C3)C1)C2)NCCCCCOCCOCCOCc1ccccc1 [Compound 1063-2]
Sort 1 and 2 by pIC50 descending and give the first. Let me know the label of the one you choose. 2

[P] O=C(NC1CCC(OCc2ccccc2OC(F)(F)F)CC1)NC12CC3CC(CC(C3)C1)C2 (stereo not shown) [Compound 1144]
[Q] O=C(Nc1cc(O)ccc1Cl)NC12CC3CC(CC(C3)C1)C2 [Compound 1189]
Sort P and Q by pIC50 descending and give the first. Let me know the label of the one you choose. P
